Assay: In vivo pharmacokinetics, lung tissue homogenate (UPLC-MS/MS)
Set-up: species or system rat
Settings: male, Sprague-Dawley (SD); rat lung tissue homogenate; tail intravenous injection BA/AH-DPI saline solution 9 mg/kg; 30 min; read-out: Drug concentration of BA in lung tissue
readout: concentration at 30 min (ng/mL)
Answer in ng/mL, number only, no unit symbol.

q: Quick one: concentration at 30 min of `O=C(O)[C@H]1O[C@@H](Oc2cc3oc(-c4ccccc4)cc(=O)c3c(O)c2O)[C@H](O)[C@@H](O)[C@@H]1O` ?
a: 39.2

* * *

Experiment: In vivo pharmacokinetics, plasma (UPLC-MS/MS)
Set-up: species or system rat
Details: male, SD, inhaled; rat plasma; pulmonary administration BA/AH-DPI 9 mg/kg; 120 min; read-out: Blood concentration of AH
Counter-ions that a name gives are not always drawn.
readout: concentration at 120 min

q: Need concentration at 120 min of Nc1c(Br)cc(Br)cc1CNC1CCC(O)CC1 (stereo not shown) [AH, ambroxol hydrochloride] , thanks.
a: 0.0402 µg/mL
